Biological target: T1, C4b binding protein (human, UniProt P04003 49-597; P20851 18-252)
T1 construct: mature; The beta chain is added from general knowledge; Biotinylated (b-C4BP) in some assays; also called C4BP; purified human C4BP
T1 sequence (looked up) 1: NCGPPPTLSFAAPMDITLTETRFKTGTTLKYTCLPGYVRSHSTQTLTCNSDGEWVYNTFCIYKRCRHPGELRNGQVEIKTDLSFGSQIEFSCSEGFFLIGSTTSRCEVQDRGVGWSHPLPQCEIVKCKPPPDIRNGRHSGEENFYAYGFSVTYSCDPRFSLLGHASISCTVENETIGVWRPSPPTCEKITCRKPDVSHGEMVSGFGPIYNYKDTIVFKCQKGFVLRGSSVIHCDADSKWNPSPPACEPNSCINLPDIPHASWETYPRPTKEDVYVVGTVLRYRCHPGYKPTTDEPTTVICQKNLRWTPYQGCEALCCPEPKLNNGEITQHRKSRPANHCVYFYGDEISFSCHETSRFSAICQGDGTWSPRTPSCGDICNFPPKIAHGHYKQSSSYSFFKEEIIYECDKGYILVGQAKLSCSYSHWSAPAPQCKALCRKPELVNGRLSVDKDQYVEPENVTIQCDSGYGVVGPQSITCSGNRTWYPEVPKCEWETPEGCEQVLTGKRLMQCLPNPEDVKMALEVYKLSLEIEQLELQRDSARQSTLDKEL
T1 sequence (looked up) 2: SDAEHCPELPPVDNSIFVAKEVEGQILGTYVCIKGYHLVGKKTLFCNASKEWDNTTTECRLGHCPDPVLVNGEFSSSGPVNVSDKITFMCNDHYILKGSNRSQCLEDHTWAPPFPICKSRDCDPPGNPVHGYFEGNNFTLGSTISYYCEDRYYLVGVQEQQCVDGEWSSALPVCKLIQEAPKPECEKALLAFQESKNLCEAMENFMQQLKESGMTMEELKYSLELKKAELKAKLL
Assay: Fluid-phase competition of b-C4BP, PS and peptide; capture on MAb S-7
Ends that are not written are not given here.
quantity.name: IC50

q: Can you look up the measured IC50 of CIRSWNLMKQGASIKEIIQEKQNKHC-NH2 (cysteine pairing not given here, also called loop peptide) [PSP-loop] for me?
a: ~35 µM
